Where do the numbers come from? From ChEMBL document CHEMBL4808171.

Target: Peroxisome proliferator-activated receptor gamma (Homo sapiens) (UniProt P37231)
Sequence (whole entry): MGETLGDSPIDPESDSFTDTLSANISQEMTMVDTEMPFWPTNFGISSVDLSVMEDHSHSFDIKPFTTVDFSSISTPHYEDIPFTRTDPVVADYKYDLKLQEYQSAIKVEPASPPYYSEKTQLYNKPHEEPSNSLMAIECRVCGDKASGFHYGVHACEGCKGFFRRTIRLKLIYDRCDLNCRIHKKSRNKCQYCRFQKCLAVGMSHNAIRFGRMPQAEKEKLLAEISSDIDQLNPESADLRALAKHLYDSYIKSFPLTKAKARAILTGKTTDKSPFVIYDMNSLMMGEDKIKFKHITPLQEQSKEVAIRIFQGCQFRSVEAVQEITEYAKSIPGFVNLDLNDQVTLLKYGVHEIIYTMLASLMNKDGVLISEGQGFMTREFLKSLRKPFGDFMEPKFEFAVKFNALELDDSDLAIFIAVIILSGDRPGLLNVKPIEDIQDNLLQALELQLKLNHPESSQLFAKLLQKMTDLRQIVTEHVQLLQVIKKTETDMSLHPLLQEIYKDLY
Assay: Agonist activity at human PPARgamma expressed in CHO cells assessed as increase in receptor transcriptional activity at 1 uM incubated for 24 hrs by dual luciferase reporter gene assay relative to rosiglitazone
Format: cell-based
observed.property: Emax (%)

Example results:
{"structure": "O=C(O)CCc1ccc2[nH]c(-c3ccc(Cl)cc3C(F)(F)F)cc2c1", "observed.property": "Emax", "observed.value": 15.9}
{"structure": "O=C(O)CCc1ccc2[nH]c(-c3cc(Cl)ccc3Cl)cc2c1", "observed.property": "Emax", "observed.value": 2.69}
{"structure": "Cc1ccc(Cl)cc1-c1cc2cc(CCC(=O)O)ccc2[nH]1", "observed.property": "Emax", "observed.value": 18.3}
{"structure": "O=C(O)CCc1ccc2[nH]c(-c3ccc(Cl)cc3F)cc2c1", "observed.property": "Emax", "observed.value": 3.64}
{"structure": "O=C(O)CCc1ccc2[nH]c(-c3ccc(Cl)cc3Cl)cc2c1", "observed.property": "Emax", "observed.value": 5.39}
{"structure": "Cc1ccc(-c2cc3cc(CCC(=O)O)ccc3[nH]2)c(C)c1", "observed.property": "Emax", "observed.value": 2.51}

A = O=C(O)CCc1ccc2[nH]c(-c3ccncc3Cl)cc2c1
B = O=C(O)CCc1ccc2[nH]c(-c3cccc(Cl)c3F)cc2c1
C = Cc1cccc(C)c1-c1cc2cc(CCC(=O)O)ccc2[nH]1
Query: // sort entries: Emax, high to low Return the labels ranked in the requested order, please.
Result: B, C, A
(B: 18.2%, C: 0.52%, A: 0.19%)
